experimentalProtocol: melting temperature; fluorescence melt of hairpins on a sequencing array, two-state fit, raised by 9.35 °C to match UV melts
measurementParameters: sodium 0.088 M
propertyLabel: Tm (°C)
All answers are understood in °C, so give the number only.

Solved entries:
GGCTCCCCGAAAGGGGCC (((..(((....)))))) = 50.9
GGAATTCCGAAAGGATCC (((..(((....)))))) = 28
GTCAACGAAAGTTGCGAC ((((((....)))..))) = 46.6

Query: Suppose we examine the sequence GGGAAGTCGAAAGACCCC (((..(((....)))))) ; what Tm value has been reported?
Result: 44.8

Query: Look up Tm for this sequence: GATCGAATCATCGATC ((((((....))))))
Result: 51.9

Query: What does the data say about its Tm? Entry: GGTAACGAAAGTTGTACC ((((((....)))..)))
Result: 34.8

* * *

// values below are reported Tm
experimentalProtocol: melting temperature; fluorescence melt of hairpins on a sequencing array, two-state fit, raised by 9.35 °C to match UV melts
measurementParameters: sodium 0.088 M

Please review the following examples before continuing.
GATCAGGTTCCTGATC ((((((....)))))) = 53.7 °C
GATCGGGGGTCCGATC ((((((....)))))) = 57 °C
GACTGCGGAAACGCAGCC (.(((((....))))).) = 52 °C
GATGGCCGAAAGGCAATC (((.(((....))).))) = 57.3 °C

Query: If you can, please state the reported Tm value of GCGGAGTCCGC ((((...)))) .
Result: 52.4 °C

Query: If you can, please state the reported Tm value of GATGATGGAAACACCATC ((((.((....)).)))) .
Result: 38.6 °C

Query: Data request, read-out Tm, for GTAGAGAAATCTAC (((((....)))))
Result: 35.5 °C

Query: Consider the sequence shown here: GCCTGTACGAAAGTAGGC (((..(((....)))))) What is its recorded Tm?
Result: 48.9 °C

* * *

experimentalProtocol: melting temperature; fluorescence melt of hairpins on a sequencing array, two-state fit, raised by 9.35 °C to match UV melts
measurementParameters: sodium 0.088 M
Decide using Tm: a value greater than or equal to 50 °C is True, a smaller one is False.

Known results for sequences:
GATCAAATCGTTGATC ((((((....)))))) = False
CTAGCGAAAGCTAG (((((....))))) = True
GACGCAGGAAACTGTGTC (((.(((....))).))) = True
GCCAAGCGAAAGCTAGGC (((.(((....))).))) = True
GCAGCGCGAAAGCAGTGC (((..((....))..))) = True
GGGCACGGAAACGCACCC (((..((....))..))) = False

Query: Does the reported Tm for GGTCATGCGAAAGCAACC (((..(((....)))))) fall at or above the 50 °C mark?
Result: False

Query: Quick check: does GCGTAATAACGC ((((....)))) have Tm greater than or equal to 50 °C?
Result: True

Query: Is Tm at least 50 °C? Consider GCGATCGAAAGATACCGC ((((((....)))..)))
Result: False

Query: Determine whether measured Tm meets or exceeds 50 °C for GTGAGGACGAAAGTCCAC (((..(((....))))))
Result: False

Query: Is it the case that GCATGGCGAAAGCTATGC ((((.((....)).)))) has Tm reaching or exceeding 50 °C?
Result: True

Query: Is it the case that GATCTGTAACCAGATC ((((((....)))))) has Tm reaching or exceeding 50 °C?
Result: False

* * *

experimentalProtocol: folding enthalpy; higher = less favourable; fluorescence melt of hairpins on a sequencing array, two-state fit
measurementParameters: sodium 0.088 M
propertyLabel: folding enthalpy (kcal/mol)
Record the value in kcal/mol, omitting the unit from your answer.

GGTAGCGAAAGCTCGACC ((((((....)))..))) = -15.1
CTAGCGAAAGCTAG (((((....))))) = -19
GCGTCGCGAAAGCGCTGC ((..(((....)))..)) = -16.3
GAGGTAGGAAACTACTTC ((.((((....)))).)) = -30.1

Query: I have this sequence here, GCCTTATCGAAAGATGGC (((..(((....)))))) , and I need its recorded folding enthalpy.
Result: -28.7

Query: Query (sequence): GGTGGAGGAAACTCCACC (((((((....))))))) ; field requested: folding enthalpy
Result: -38.6

Query: Need folding enthalpy of GGAGACACGAAAGTGTCC (((..(((....)))))) , thanks.
Result: -8.97

Query: folding enthalpy for GCCTAGGCGAAAGCCGGC (((..(((....)))))) ?
Result: -13.3

Query: Which value of folding enthalpy has been reported for GCTACATCGAAAGATAGC (((..(((....)))))) in the records?
Result: -16.7

Query: Item GATGAACGAAAGTTAATC (((.(((....))).))) has what recorded folding enthalpy?
Result: -23.7

* * *

Known Tm of a selection of sequences
experimentalProtocol: melting temperature; fluorescence melt of hairpins on a sequencing array, two-state fit, raised by 9.35 °C to match UV melts
measurementParameters: sodium 0.088 M
Note: unit °C is implicit; provide only the numeric part.

GCCGGCGAAAGCCTAGGC ((((((....)))..))) = 60.1
GTGTTTGGAAACAGACAC ((((.((....)).)))) = 44.1
GATCTTTGCCAAGATC ((((((....)))))) = 42.5
GTACCGAAAGGTAC (((((....))))) = 65.9
GATCACGTTCGTGATC ((((((....)))))) = 62.6
CTCTTGAAAAAGAG (((((....))))) = 36.2
GGCGCTGGAAACAGCACC ((.((((....)))).)) = 54.8
GTTAACGGAAACGTTAGC (.(((((....))))).) = 42.9
GGCTAGGGAAACCTAGCC (((((((....))))))) = 67.5
GCGTACGGAAACGCACAC (.((.((....)).)).) = 38.1

Query: Value lookup for Tm; key = GGAATTCGAAAGAACTCC (((.(((....))).)))
Result: 36.4

Query: Suppose we examine the sequence GCCCTGCGAAAGCACAGC ((..(((....)))..)) ; what Tm value has been reported?
Result: 27.4

Query: What does the record list as Tm for GATCCATAGCTGGATC ((((((....)))))) ?
Result: 49.2

Query: Name the recorded Tm for GGTAATGGAAACACTACC ((((.((....)).)))) .
Result: 30.1

Query: Sample GGATATCGAAAGATCTCC (((.(((....))).))) — what was its Tm?
Result: 39.1

Query: What value of Tm has been reported for the following sequence? GTGAGCGAAAGCTATCAC ((((((....)))..)))
Result: 37.6

Query: So what's the measured Tm for this one? GATCCCAGTGGGATC ((((((...))))))
Result: 60.8

Query: Consider the sequence GGGTTAGGAAACTGACCC ((((.((....)).)))) and give its measured Tm.
Result: 50

Query: # input sequence: GAAAACGAAAGTTTGTTC ((((((....)))..))) ; wanted: its Tm
Result: 28.4

Query: May I ask what Tm has been recorded for GCTCTGCGAAAGCATGGC ((..(((....)))..)) ?
Result: 40.1

Query: Value lookup for Tm; key = GACGGTGAAAACCGTC ((((((....))))))
Result: 68.5

Query: # lookup: Tm of GATCCAGGCATGGATC ((((((....))))))
Result: 57.8

Query: # Tm lookup, item CGAGGGAAACCTCG (((((....)))))
Result: 53.7

Query: Please report the recorded Tm for GGGTAGGAAACTACCC ((((((....)))))) .
Result: 58.8

Query: Which Tm is listed for GATCCTCTATAGGATC ((((((....)))))) ?
Result: 51.9

Query: Give the measured Tm of GATCGATGCTTCGATC ((((((....)))))) .
Result: 54.9

* * *

experimentalProtocol: folding enthalpy; higher = less favourable; fluorescence melt of hairpins on a sequencing array, two-state fit
measurementParameters: sodium 0.088 M
Rule: folding enthalpy under -30 kcal/mol gives condition not met, otherwise condition met.

Observe how each entry below is paired with its result.
GTGTTCGGAAACGAATGC (..((((....))))..) = condition met
GCGTAAGACGC ((((...)))) = condition met
GATCATGATGATGATC ((((((....)))))) = condition not met
GATGTGGGAAACCATATC (((.(((....))).))) = condition not met

Query: Evaluate GCCTGGGGAAACCTGGGC (((..((....))..))) : folding enthalpy at minimum -30 kcal/mol?
Result: condition not met

Query: Please check the record GCTCTGCGAAAGCGGCGC ((.(.((....)).).)) and state if its folding enthalpy is at or above -30 kcal/mol.
Result: condition met

Query: Answer whether folding enthalpy of GCCCCTGGAAACAGAGGC (((.(((....))).))) is greater than or equal to -30 kcal/mol.
Result: condition met

Query: Does GCAGTGGGAAACCGCTGC ((((.((....)).)))) have a reported folding enthalpy of at least -30 kcal/mol?
Result: condition not met

Query: Test whether the sequence GCCTTGCGAAAGCCACGC ((.(.((....)).).)) records folding enthalpy of -30 kcal/mol or higher.
Result: condition met

Query: Hi team, for GGCTCCGGAAACGGAACC ((.((((....)))).)) , is the recorded folding enthalpy at or above -30 kcal/mol?
Result: condition met

Query: Given the entry GAGGTCACGAAAGTGCTC (((..(((....)))))) , answer whether its folding enthalpy meets or surpasses -30 kcal/mol.
Result: condition met

Query: Is it the case that CGTTCGGAAACGAGGACG ((((((....)))..))) has folding enthalpy reaching or exceeding -30 kcal/mol?
Result: condition met

Query: Quick check: does GGAAGCGAAAGCTAGTCC ((((((....)))..))) have folding enthalpy greater than or equal to -30 kcal/mol?
Result: condition met

Query: Check the entry GATCTGGGGTCAGATC ((((((....)))))) : does folding enthalpy equal or exceed -30 kcal/mol?
Result: condition not met

Query: Determine whether this sequence has folding enthalpy no lower than -30 kcal/mol: CGTTCGGAAACGACCACG ((((((....)))..)))
Result: condition met
